ASSAY REMARKS: NCI Yeast Anticancer Drug Screen. Data for the rad50 strain (AID 155);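 note: 0% = growth of vehicle-only cultures of the same strain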
CONDITION SUMMARY: S. cerevisiae rad50 strain growth inhibition; at 50.0 µM; stronger effect = higher value
Compounds without any hit were thinned out: in the full panel of roughly 79,000, 15% have a hit.

COMPOUND	growth inhibition [%]
O=[N+]([O-])c1c(/C=N/Nc2ccccc2)oc(-c2ccc3c(c2)OCO3)c1-c1ccc2c(c1)OCO2	80.3
COc1ccc2c(c1)[nH]c1c(/C=C/c3ccccc3)nccc12	89.5
CC[C@@]1(OC(=O)CCC(=O)O)C(=O)OCc2c1cc1n(c2=O)Cc2cc3ccccc3nc2-1	80.7
O=[N+]([O-])/C(C(Cl)=C(Cl)Cl)=C1/OCCS1	90.5
O=C1C=CC(=O)N1c1ccc(N2C(=O)C=CC2=O)cc1	92.2
CC(=O)[C@]1(O)Cc2c(O)c3c(c(O)c2[C@@H](OC2CC(N)C(O)C(C)O2)C1)C(=O)c1c(OCc2ccccc2)cccc1C3=O (stereo not given in full)	72.8
Nc1nc(N)c2cc(Sc3ccc4ccccc4c3)ccc2n1	88.1
O=C(NC(=S)Nc1ccccn1)c1ccccc1	28.7
COc1ccc(SCc2cc(OC)ccc2OC)cc1	60.5
CCCCC(CC)C(=O)Oc1ccc(C(=O)c2ccccc2)c(O)c1 (stereo not given)	74.9

* * *

// growth inhibition lookup, one value per entry
ASSAY REMARKS: NCI Yeast Anticancer Drug Screen. Data for the mlh1 strain (AID 171);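 note: 0% = growth of vehicle-treated control cultures of the same strain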
CONDITION SUMMARY: S. cerevisiae mlh1 strain growth inhibition; at 11.0 µM; stronger effect = higher value
About 79,000 compounds went through this panel and 15% of them were active in at least one assay; those are over-represented in the sample as a whole. Calls of active or inactive are those of the source. No stated cut-off is given here; in the data, active means growth inhibition above about 70%; inactive means the rest.

COMPOUND	growth inhibition
Cc1ccc(S(=O)(=O)N/N=C/C2(c3ccccc3)c3ccccc3-c3ccccc32)cc1	30% (inactive)
COc1ccc(N=N/C(=N\NC(=O)c2cc(Br)ccc2O)c2ccc(N(CCC#N)CCC#N)cc2OC)cc1	24% (inactive)
Cn1ncc2cc3c(Nc4ccc(Cl)cc4)cccc3nc21	-2% (inactive)
Clc1cc(-c2ccccc2)nc2ccccc12	24% (inactive)
Cc1ccc(I)cc1N=C=S	44% (inactive)
COc1ccc2c(c1)[nH]c1c(/C=C/c3ccccc3)nccc12	-35% (inactive)
CN[C@@H]1C[C@H]2O[C@@](C)([C@@H]1OC)n1c3ccccc3c3c4c(c5c6ccccc6n2c5c31)C(=O)N[C@@H]4O	-16% (inactive)
N#C/C(=C1C=C(Br)/C(=N\O)C=C\1Cl)c1cccc2ccccc12	58% (inactive)
S=C(S)NCC1CCC(CNC(=S)S)CC1 (stereo not drawn)	5% (inactive)
CC(=O)C1=C(C)O/C(=C/c2cccc(Cl)c2)C1=O	4% (inactive)
CC(=O)Oc1ccc(N2C(=O)C3c4[nH]c5ccccc5c4C4CCC(C(C)(C)C)CC4C3C2=O)cc1 (stereo not drawn)	98% (active)
O=Nc1ccc(Nc2ccccc2)cc1	-26% (inactive)
O=Nn1c2ccccc2c2cc([N+](=O)[O-])ccc21	-3% (inactive)
Cc1ccc(S(=O)(=O)N(C)c2ccc(Cl)cc2C2=NCCc3ccccc32)cc1	-17% (inactive)
CN=C(N)N/N=C(\C)c1ccc2oc3ccc(/C(C)=N/NC(N)=NC)cc3c2c1	35% (inactive)
S=c1[nH]c2c(Cl)c(Cl)c(Cl)c(Cl)c2[nH]1	75% (active)
CC(C)(O)c1ccccc1C(c1ccccc1)c1ccccc1	-2% (inactive)
O=C1C(Cl)=C(Cl)C(Cl)(Cl)C(Cl)C1(Cl)Cl (stereo not drawn)	66% (inactive)
N#CC(=S)Nc1cccc(Cl)c1	26% (inactive)
COC(=O)c1n[nH]c(C)c1N=NN(C)CCC#N	98% (active)
COc1cc(/C=C/c2sc3ccccc3[n+]2C)ccc1N(C)C	-3% (inactive)
Cc1c2cc[n+](CCN3CCCCC3)cc2c(C)c2c1[nH]c1ccc(O)cc12	0% (inactive)
COc1cccc(C(c2cc3c(cc2O)OCO3)N2CCOCC2)c1OC (stereo not drawn)	4% (inactive)
